The reported measurements were obtained from patent US4791135A.

assay: Stability in 5% NaHCO3/D2O at room temperature, monitored by PMR; assay type: physicochemical; details: 5% NaHCO3/D2O, room temperature, 8 days; read-out: % Hydrolysis
EXPERIMENTAL_ENDPOINT: degraded at 192 h (%)
API: value field is a number in %; no unit string.

Consider C[C@H]1[C@H](OC(=O)CCC(=O)O)O[C@@H]2O[C@@]3(C)CC[C@H]4[C@H](C)CC[C@@H]1[C@@]24OO3 . Its measured degraded at 192 h is 75

###

test: physchem; assay type: physicochemical; conditions: 2.5% k2co3/d2o
EXPERIMENTAL_ENDPOINT: degraded at 1.5 h

Consider C[C@H]1[C@H](OC(=O)CCC(=O)O)O[C@@H]2O[C@@]3(C)CC[C@H]4[C@H](C)CC[C@@H]1[C@@]24OO3 . Its measured degraded at 1.5 h is 20%

Continuing:
Consider CC1CCC2C(C)C(OCc3ccc(C(=O)O)cc3)OC3OC4(C)CCC1C32OO4 (centres unmarked) . Its measured degraded at 1.5 h is 0%
